- STUDY TARGET: MRP3 (Rattus norvegicus)
- Construct: intestinal segments including duodenum, jejunum, ileum, and colon from anesthetized rats were immediately removed by surgery; from tissue; host or cells: stripped rat intestine (jejunum and ileum in validation; jejunum for the emodin studies)
- ASSAY PROTOCOL: Ussing chamber bidirectional transport, model validation for MRP3 (teniposide substrate, benzbromarone inhibitor)
- Format: in vitro ADME
- MEASUREMENT CONTEXT: rat, pH 6.5, rat ileum, without inhibitor; read-out: Papp M-S, control
PARAMETER MEASURED: Papp (×10⁻⁶ cm/s)
A number alone suffices; assume ×10⁻⁶ cm/s.

Could you please provide reported Papp for COc1cc([C@@H]2c3cc4c(cc3[C@@H](O[C@@H]3O[C@@H]5CO[C@@H](c6cccs6)O[C@H]5[C@H](O)[C@H]3O)[C@H]3COC(=O)[C@H]23)OCO4)cc(OC)c1O [Teniposide] ? Thanks!
12.6

* * *

- System: P-gp
- ASSAY PROTOCOL: Influence of emodin on P-gp function: digoxin bidirectional transport in the presence of emodin (Ussing chamber)
- Format: in vitro ADME
- MEASUREMENT CONTEXT: rat, pH 6.5, with emodin 740 μM on mucosal side, digoxin 25 μM, rat jejunum, emodin 740 μM on mucosal side; read-out: Papp S-M in the presence of emodin
PARAMETER MEASURED: Papp at 25 μM (×10⁻⁶ cm/s)
Give your result in ×10⁻⁶ cm/s as a bare value.

Supply measured Papp at 25 μM of C[C@H]1O[C@@H](O[C@H]2[C@@H](O)C[C@H](O[C@H]3[C@@H](O)C[C@H](O[C@H]4CC[C@@]5(C)[C@H](CC[C@@H]6[C@@H]5C[C@@H](O)[C@]5(C)[C@@H](C7=CC(=O)OC7)CC[C@]65O)C4)O[C@@H]3C)O[C@@H]2C)C[C@H](O)[C@@H]1O in your reply.
142

* * *

- STUDY TARGET: MRP3 (Rattus norvegicus)
- Construct: intestinal segments including duodenum, jejunum, ileum, and colon from anesthetized rats were immediately removed by surgery; from tissue; host or cells: stripped rat intestine (jejunum and ileum in validation; jejunum for the emodin studies)
- ASSAY PROTOCOL: Ussing chamber bidirectional transport, model validation for MRP3 (teniposide substrate, benzbromarone inhibitor)
- Type: in vitro ADME
- MEASUREMENT CONTEXT: rat, pH 6.5, rat colon, without inhibitor; read-out: Papp S-M, control
PARAMETER MEASURED: Papp

Give the measured Papp for COc1cc([C@@H]2c3cc4c(cc3[C@@H](O[C@@H]3O[C@@H]5CO[C@@H](c6cccs6)O[C@H]5[C@H](O)[C@H]3O)[C@H]3COC(=O)[C@H]23)OCO4)cc(OC)c1O [Teniposide]
21.3 ×10⁻⁶ cm/s

* * *

- STUDY TARGET: MRP3 (Rattus norvegicus)
- Construct: intestinal segments including duodenum, jejunum, ileum, and colon from anesthetized rats were immediately removed by surgery; from tissue; host or cells: stripped rat intestine (jejunum and ileum in validation; jejunum for the emodin studies)
- ASSAY PROTOCOL: Ussing chamber bidirectional transport, model validation for MRP3 (teniposide substrate, benzbromarone inhibitor)
- Format: in vitro ADME
- MEASUREMENT CONTEXT: rat, pH 6.5, with benzbromarone 470 μM, mucosal side, rat jejunum, with benzbromarone 470 μM on mucosal side; read-out: Papp S-M, with inhibitor
PARAMETER MEASURED: Papp (×10⁻⁶ cm/s)
Please state the figure in ×10⁻⁶ cm/s; there is no need to write the unit.

Assign Papp to the following record: COc1cc([C@@H]2c3cc4c(cc3[C@@H](O[C@@H]3O[C@@H]5CO[C@@H](c6cccs6)O[C@H]5[C@H](O)[C@H]3O)[C@H]3COC(=O)[C@H]23)OCO4)cc(OC)c1O [Teniposide]
13.1

* * *

- STUDY TARGET: UniProtKB Q63120
- ASSAY PROTOCOL: Ussing chamber bidirectional transport, model validation for MRP2 (pravastatin substrate, MK571 inhibitor)
- Format: in vitro ADME
- Parameters: intestinal segments including duodenum, jejunum, ileum, and colon from anesthetized rats were immediately removed by surgery; from tissue; host or cells: stripped rat intestine (jejunum and ileum in validation; jejunum for the emodin studies)
- MEASUREMENT CONTEXT: rat, pH 6.5, with MK571 186 μM on mucosal side, rat jejunum, with MK571 186 μM on mucosal side; read-out: Papp S-M, with inhibitor
PARAMETER MEASURED: Papp (×10⁻⁶ cm/s)
// note: answer is a bare numeric in ×10⁻⁶ cm/s

Give the measured Papp for CC[C@H](C)C(=O)O[C@H]1C[C@H](O)C=C2C=C[C@H](C)[C@H](CC[C@@H](O)C[C@@H](O)CC(=O)O)[C@H]21 [Pravastatin]
127

* * *

- STUDY TARGET: MRP3 (Rattus norvegicus, UniProt O88563)
- Construct: intestinal segments including duodenum, jejunum, ileum, and colon from anesthetized rats were immediately removed by surgery; from tissue; host or cells: stripped rat intestine (jejunum and ileum in validation; jejunum for the emodin studies)
- Sequence (O88563 whole entry): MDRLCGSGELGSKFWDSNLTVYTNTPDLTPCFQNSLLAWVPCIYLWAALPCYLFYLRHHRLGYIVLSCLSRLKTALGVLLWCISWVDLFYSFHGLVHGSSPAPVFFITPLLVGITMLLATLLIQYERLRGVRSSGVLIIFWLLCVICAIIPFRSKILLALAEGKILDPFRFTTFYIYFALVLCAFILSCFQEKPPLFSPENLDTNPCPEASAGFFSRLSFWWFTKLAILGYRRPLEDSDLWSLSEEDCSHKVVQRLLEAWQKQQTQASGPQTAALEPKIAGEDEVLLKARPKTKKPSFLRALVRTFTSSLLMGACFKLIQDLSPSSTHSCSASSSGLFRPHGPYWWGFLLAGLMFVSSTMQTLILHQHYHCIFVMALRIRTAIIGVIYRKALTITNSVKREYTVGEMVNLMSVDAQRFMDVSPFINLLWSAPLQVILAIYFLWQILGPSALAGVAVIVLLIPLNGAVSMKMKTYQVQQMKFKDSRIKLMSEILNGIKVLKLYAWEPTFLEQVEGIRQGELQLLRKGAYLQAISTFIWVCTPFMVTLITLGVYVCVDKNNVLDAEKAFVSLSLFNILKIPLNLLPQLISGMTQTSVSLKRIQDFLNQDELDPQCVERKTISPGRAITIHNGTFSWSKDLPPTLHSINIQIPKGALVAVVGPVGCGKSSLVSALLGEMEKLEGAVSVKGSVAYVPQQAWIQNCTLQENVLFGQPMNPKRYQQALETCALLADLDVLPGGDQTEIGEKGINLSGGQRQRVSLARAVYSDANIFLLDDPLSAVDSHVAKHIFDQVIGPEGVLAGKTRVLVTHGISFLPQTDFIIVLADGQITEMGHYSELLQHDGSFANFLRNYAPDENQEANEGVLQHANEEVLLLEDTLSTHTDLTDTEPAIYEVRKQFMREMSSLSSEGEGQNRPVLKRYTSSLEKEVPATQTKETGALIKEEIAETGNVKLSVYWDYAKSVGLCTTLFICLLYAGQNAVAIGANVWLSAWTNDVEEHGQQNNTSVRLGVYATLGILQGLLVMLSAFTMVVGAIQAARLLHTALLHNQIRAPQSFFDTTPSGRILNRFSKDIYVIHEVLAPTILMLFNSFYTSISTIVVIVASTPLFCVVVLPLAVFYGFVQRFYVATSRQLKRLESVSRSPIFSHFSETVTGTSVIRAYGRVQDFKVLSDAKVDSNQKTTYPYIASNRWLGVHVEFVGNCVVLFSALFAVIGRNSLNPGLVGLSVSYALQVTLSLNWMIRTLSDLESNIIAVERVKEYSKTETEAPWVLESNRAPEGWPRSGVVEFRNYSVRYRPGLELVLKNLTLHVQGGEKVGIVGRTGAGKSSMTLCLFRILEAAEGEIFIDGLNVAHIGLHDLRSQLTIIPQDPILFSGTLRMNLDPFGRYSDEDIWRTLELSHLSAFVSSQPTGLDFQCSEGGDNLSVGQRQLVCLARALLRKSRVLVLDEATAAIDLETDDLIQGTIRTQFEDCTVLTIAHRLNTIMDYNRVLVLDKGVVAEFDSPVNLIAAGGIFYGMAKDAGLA
- ASSAY PROTOCOL: Influence of emodin on MRP3 function: teniposide bidirectional transport in the presence of emodin (Ussing chamber)
- Format: in vitro ADME
- MEASUREMENT CONTEXT: rat, pH 6.5, with emodin 185 μM on mucosal side, teniposide 60 μM, rat jejunum, emodin 185 μM on mucosal side; read-out: Papp M-S in the presence of emodin
PARAMETER MEASURED: Papp at 60 μM (×10⁻⁶ cm/s)
Numeric only. Scale: ×10⁻⁶ cm/s

Report Papp at 60 μM, nothing else, for this compound: COc1cc([C@@H]2c3cc4c(cc3[C@@H](O[C@@H]3O[C@@H]5CO[C@@H](c6cccs6)O[C@H]5[C@H](O)[C@H]3O)[C@H]3COC(=O)[C@H]23)OCO4)cc(OC)c1O [Teniposide]
63.2

* * *

- STUDY TARGET: MRP3 (Rattus norvegicus, UniProt O88563)
- Construct: intestinal segments including duodenum, jejunum, ileum, and colon from anesthetized rats were immediately removed by surgery; from tissue; host or cells: stripped rat intestine (jejunum and ileum in validation; jejunum for the emodin studies)
- ASSAY PROTOCOL: Ussing chamber bidirectional transport, model validation for MRP3 (teniposide substrate, benzbromarone inhibitor)
- Type: in vitro ADME
- MEASUREMENT CONTEXT: rat, pH 6.5, with benzbromarone 470 μM, mucosal side, rat ileum, with benzbromarone 470 μM on mucosal side; read-out: Papp S-M, with inhibitor
PARAMETER MEASURED: Papp (×10⁻⁶ cm/s)
Please state the figure in ×10⁻⁶ cm/s; there is no need to write the unit.

Fill in reported Papp for this entry: COc1cc([C@@H]2c3cc4c(cc3[C@@H](O[C@@H]3O[C@@H]5CO[C@@H](c6cccs6)O[C@H]5[C@H](O)[C@H]3O)[C@H]3COC(=O)[C@H]23)OCO4)cc(OC)c1O [Teniposide]
10.3

* * *

- STUDY TARGET: MRP3 (Rattus norvegicus, UniProt O88563)
- Construct: intestinal segments including duodenum, jejunum, ileum, and colon from anesthetized rats were immediately removed by surgery; from tissue; host or cells: stripped rat intestine (jejunum and ileum in validation; jejunum for the emodin studies)
- ASSAY PROTOCOL: Influence of emodin on MRP3 function: teniposide bidirectional transport in the presence of emodin (Ussing chamber)
- Assay type: in vitro ADME
- MEASUREMENT CONTEXT: rat, pH 6.5, with emodin 185 μM on mucosal side, teniposide 60 μM, rat jejunum, emodin 185 μM on mucosal side; read-out: Papp S-M in the presence of emodin
PARAMETER MEASURED: Papp at 60 μM

In one line, give reported Papp at 60 μM of the entry COc1cc([C@@H]2c3cc4c(cc3[C@@H](O[C@@H]3O[C@@H]5CO[C@@H](c6cccs6)O[C@H]5[C@H](O)[C@H]3O)[C@H]3COC(=O)[C@H]23)OCO4)cc(OC)c1O [Teniposide] .
56.1 ×10⁻⁶ cm/s

* * *

- Tested on: P-gp
- ASSAY PROTOCOL: Influence of emodin on P-gp function: digoxin bidirectional transport in the presence of emodin (Ussing chamber)
- Assay type: in vitro ADME
- MEASUREMENT CONTEXT: rat, pH 6.5, with emodin 740 μM on mucosal side, digoxin 25 μM, rat jejunum, emodin 740 μM on mucosal side; read-out: Papp M-S in the presence of emodin
PARAMETER MEASURED: Papp at 25 μM

Return Papp at 25 μM (reported value) for this compound: C[C@H]1O[C@@H](O[C@H]2[C@@H](O)C[C@H](O[C@H]3[C@@H](O)C[C@H](O[C@H]4CC[C@@]5(C)[C@H](CC[C@@H]6[C@@H]5C[C@@H](O)[C@]5(C)[C@@H](C7=CC(=O)OC7)CC[C@]65O)C4)O[C@@H]3C)O[C@@H]2C)C[C@H](O)[C@@H]1O
20.4 ×10⁻⁶ cm/s

* * *

- STUDY TARGET: MRP2 (Rattus norvegicus, UniProt Q63120)
- Sequence (Q63120 whole entry): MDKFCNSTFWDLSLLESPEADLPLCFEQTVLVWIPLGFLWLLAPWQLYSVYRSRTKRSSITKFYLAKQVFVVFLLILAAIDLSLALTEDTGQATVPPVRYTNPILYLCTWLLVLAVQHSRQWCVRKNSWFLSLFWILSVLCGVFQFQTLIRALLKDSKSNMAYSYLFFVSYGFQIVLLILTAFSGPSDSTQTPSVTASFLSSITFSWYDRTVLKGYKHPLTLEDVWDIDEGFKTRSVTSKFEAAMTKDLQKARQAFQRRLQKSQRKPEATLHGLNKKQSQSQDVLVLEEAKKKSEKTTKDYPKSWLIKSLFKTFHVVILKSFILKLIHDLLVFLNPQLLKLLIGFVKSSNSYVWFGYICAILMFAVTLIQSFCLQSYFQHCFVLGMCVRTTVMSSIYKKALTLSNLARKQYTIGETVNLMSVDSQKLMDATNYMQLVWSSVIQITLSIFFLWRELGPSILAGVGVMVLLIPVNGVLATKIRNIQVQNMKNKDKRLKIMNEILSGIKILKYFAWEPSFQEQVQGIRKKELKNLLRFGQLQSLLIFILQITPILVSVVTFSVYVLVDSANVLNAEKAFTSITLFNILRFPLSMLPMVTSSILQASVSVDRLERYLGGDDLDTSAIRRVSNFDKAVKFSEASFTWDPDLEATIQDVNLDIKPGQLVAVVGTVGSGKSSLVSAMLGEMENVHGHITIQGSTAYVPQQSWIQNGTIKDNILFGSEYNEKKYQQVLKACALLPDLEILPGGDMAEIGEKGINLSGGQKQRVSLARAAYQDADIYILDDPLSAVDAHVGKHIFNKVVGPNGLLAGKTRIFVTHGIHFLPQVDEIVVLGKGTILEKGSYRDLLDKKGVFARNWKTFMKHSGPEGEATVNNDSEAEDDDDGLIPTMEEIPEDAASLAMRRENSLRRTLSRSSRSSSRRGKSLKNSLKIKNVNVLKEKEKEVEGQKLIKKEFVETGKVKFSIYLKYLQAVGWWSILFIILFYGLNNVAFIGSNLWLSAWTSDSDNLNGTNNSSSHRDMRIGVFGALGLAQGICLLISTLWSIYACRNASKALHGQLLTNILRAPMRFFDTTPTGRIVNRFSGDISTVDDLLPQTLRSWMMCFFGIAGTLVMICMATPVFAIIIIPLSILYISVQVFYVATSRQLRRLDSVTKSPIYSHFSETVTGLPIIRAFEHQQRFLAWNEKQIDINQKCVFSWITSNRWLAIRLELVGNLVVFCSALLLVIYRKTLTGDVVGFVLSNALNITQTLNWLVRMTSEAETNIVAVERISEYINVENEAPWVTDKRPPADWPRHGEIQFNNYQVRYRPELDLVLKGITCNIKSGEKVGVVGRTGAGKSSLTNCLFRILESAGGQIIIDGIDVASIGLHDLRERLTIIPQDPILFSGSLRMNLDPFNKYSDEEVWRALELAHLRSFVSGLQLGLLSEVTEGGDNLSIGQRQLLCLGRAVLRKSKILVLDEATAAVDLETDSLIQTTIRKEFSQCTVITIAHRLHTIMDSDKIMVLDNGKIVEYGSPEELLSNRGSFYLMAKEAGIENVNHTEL
- ASSAY PROTOCOL: Influence of emodin on MRP2 function: pravastatin bidirectional transport in the presence of emodin (Ussing chamber)
- Assay type: in vitro ADME
- Design: intestinal segments including duodenum, jejunum, ileum, and colon from anesthetized rats were immediately removed by surgery; from tissue; host or cells: stripped rat intestine (jejunum and ileum in validation; jejunum for the emodin studies)
- MEASUREMENT CONTEXT: rat, pH 6.5, with emodin 185 μM on mucosal side, pravastatin 47 μM, rat jejunum, emodin 185 μM on mucosal side; read-out: Papp M-S in the presence of emodin
PARAMETER MEASURED: Papp at 47 μM (×10⁻⁶ cm/s)
Report the value in ×10⁻⁶ cm/s with no unit label.

State, in one line, measured Papp at 47 μM of CC[C@H](C)C(=O)O[C@H]1C[C@H](O)C=C2C=C[C@H](C)[C@H](CC[C@@H](O)C[C@@H](O)CC(=O)O)[C@H]21
123
